Numbers sourced from patent US8569336B2.

Molecular target: purified catalytic domain of recombinant human TACE (rhTACEc) (Homo sapiens, UniProt P78536, N452Q/S266A)
Construct: 6xHis (C); made in house; host or cells: baculovirus/Hi5 insect cells
Sequence (P78536 215-477 S266A/N452Q): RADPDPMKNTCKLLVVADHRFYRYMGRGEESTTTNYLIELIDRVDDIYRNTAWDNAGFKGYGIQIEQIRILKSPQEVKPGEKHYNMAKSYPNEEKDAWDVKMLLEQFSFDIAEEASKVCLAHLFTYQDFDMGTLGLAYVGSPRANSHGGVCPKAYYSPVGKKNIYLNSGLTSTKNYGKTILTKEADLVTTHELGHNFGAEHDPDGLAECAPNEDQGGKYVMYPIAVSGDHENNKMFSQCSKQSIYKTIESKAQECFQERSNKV
Assay: TACE kinetic assay: cleavage of internally quenched peptide substrate TNF-FRET 2 (Ki)
Assay type: biochemical
Conditions: Ki, TNF-FRET 2 substrate

>  <mol>
COc1ccc2c(c1)C(=O)N(C[C@@]1(c3cc4c(Cl)nc(N)nc4o3)NC(=O)NC1=O)C2

>  <Ki>
4.59 nM

$$$$
>  <mol>
COc1ccc2c(c1)C(=O)N(C[C@@]1(c3cc4nc(-n5cccn5)ccc4o3)NC(=O)NC1=O)C2

>  <Ki>
0.405 nM

$$$$
>  <mol>
COc1ccc2c(c1)C(=O)N(C[C@@]1(c3cc4c(NCc5ccccc5)ccnc4o3)NC(=O)NC1=O)C2

>  <Ki>
1.61 nM

$$$$
>  <mol>
COc1ccc2c(c1)C(=O)N(C[C@@]1(c3cc4cc(C(N)=O)ccc4o3)NC(=O)NC1=O)C2

>  <Ki>
0.12 nM

$$$$
>  <mol>
COc1ccc2c(c1)C(=O)N(C[C@@]1(c3cc4nc(Nc5onc(C)c5C)ccc4o3)NC(=O)NC1=O)C2

>  <Ki>
0.593 nM

$$$$
>  <mol>
CCOC(=O)N1CCc2oc([C@]3(CN4Cc5ccc(OC)cc5C4=O)NC(=O)NC3=O)cc2C1

>  <Ki>
0.93 nM

$$$$
>  <mol>
COc1ccc2c(c1)C(=O)N(C[C@@]1(c3cc4nc(N(c5cn[nH]c5)C5CCNCC5)ccc4o3)NC(=O)NC1=O)C2

>  <Ki>
0.39 nM

$$$$
